# melting point per entry

Example entries begin here.
Cc1nn(Cc2cccnc2)c2[nH]c3ccccc3c(=O)c12 :: 285 to 288 °C
Cc1nn(-c2ccccn2)c2[nH]c3ccccc3c(=O)c12 :: 199 to 200 °C
Clc1ccc2nc3c(cnn3-c3ccccn3)c(Cl)c2c1 :: 175 to 176 °C
O=c1c2cnn(-c3ccccn3)c2[nH]c2cccc(F)c12 :: 278 to 281 °C
Cc1nn(-c2ccccn2)c2[nH]c3ccc(Br)cc3c(=O)c12 :: 240 to 242 °C
Cc1ccc(-n2nc(C)c3c(Cl)c4cccc(C)c4nc32)nc1 :: 165 to 168 °C
Cc1nn(-c2ccccn2)c2[nH]c3cc(F)c(F)cc3c(=O)c12 :: 274 to 277 °C
Cc1ccc(-n2nc(C)c3c(N)c4ccccc4nc32)nc1 :: 229 to 232 °C
COc1ccc2nc3c(c(C)nn3-c3ccccn3)c(N)c2c1 :: 267 to 268 °C
Cc1nn(-c2ccccn2)c2[nH]c3c(c(=O)c12)CCCC3 :: 172 to 173 °C

Challenge: Quick one: melting point of Cc1nn(-c2ccccn2)c2[nH]c3cc(Cl)ccc3c(=O)c12 ?
Response given: 274 to 275 °C

Challenge: Quick one: melting point of Cc1cc(O)nc2c1c(C)nn2-c1ccccn1 ?
Response given: 254 to 255 °C

Challenge: Quick one: melting point of Cc1nn(-c2cccc(Cl)n2)c2nc3ccccc3c(Cl)c12 ?
Response given: 191 to 193 °C

Challenge: Quick one: melting point of O=C(O)c1nn(-c2ccccn2)c2[nH]c3ccccc3c(=O)c12 ?
Response given: 306 to 309 °C

Challenge: Quick one: melting point of CCCNc1c2ccccc2nc2c1c(C)nn2-c1ccccn1 ?
Response given: 121 to 122 °C

Challenge: Quick one: melting point of Cc1nn(-c2cccnc2)c2nc3ccccc3c(N)c12.Cl.Cl ?
Response given: 234 to 237 °C

Challenge: Quick one: melting point of Cc1nn(-c2ccccn2)c2nc3ccccc3c(C#N)c12 ?
Response given: 210 to 211 °C

Challenge: Quick one: melting point of CCCOc1c2cc(F)c(F)cc2nc2c1c(C)nn2-c1ccccn1 ?
Response given: 162 to 163 °C

Challenge: Quick one: melting point of COC(=O)Cc1nn(-c2ccccn2)c2nc3ccccc3c(Cl)c12 ?
Response given: 152 to 153 °C

Challenge: Quick one: melting point of CCOC(=O)c1cnc2c(c(C)nn2-c2ccccn2)c1O ?
Response given: 166 to 169 °C

----------
Assay System: human COX-2 (Homo sapiens)
Construct: made in house; host or cells: Sf-21 insect cells (recombinant baculovirus BAC-COX2, pFASTBAC1); microsome fraction
Sequence (P35354 18-604): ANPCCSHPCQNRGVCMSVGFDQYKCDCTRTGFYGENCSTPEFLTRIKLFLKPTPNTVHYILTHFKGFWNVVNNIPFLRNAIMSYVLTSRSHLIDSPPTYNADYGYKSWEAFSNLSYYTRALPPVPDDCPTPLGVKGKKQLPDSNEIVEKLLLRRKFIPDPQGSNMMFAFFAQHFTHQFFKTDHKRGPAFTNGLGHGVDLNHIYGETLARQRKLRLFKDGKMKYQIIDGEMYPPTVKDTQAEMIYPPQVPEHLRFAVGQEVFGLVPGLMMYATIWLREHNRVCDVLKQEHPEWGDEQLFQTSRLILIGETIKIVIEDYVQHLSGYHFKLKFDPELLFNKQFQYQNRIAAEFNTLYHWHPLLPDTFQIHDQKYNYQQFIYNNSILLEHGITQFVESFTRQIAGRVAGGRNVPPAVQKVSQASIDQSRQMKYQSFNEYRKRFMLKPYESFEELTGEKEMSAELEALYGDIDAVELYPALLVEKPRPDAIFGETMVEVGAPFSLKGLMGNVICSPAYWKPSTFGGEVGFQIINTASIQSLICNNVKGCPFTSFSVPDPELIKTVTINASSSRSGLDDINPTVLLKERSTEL
Protocol: Determination of COX-2 inhibitory activity (microsome fraction, chemiluminescence)
Format: biochemical
Setup Conditions: microsome fraction 20 μg, arachidonic acid, 37° C. 25 minutes preincubation; read-out: Repression rate IC50 (μM) COX-2
Observed Property: log10 of IC50 (log10 of the value in µM)
Lab note - IC50 converted to log10 from values in µM.

Example entries begin here.
Cc1nn(-c2ccccn2)c2[nH]c3cccc(F)c3c(=O)c12.Cl [Example 2-79, hydrochloride] :: 0.57
COC(=O)c1cccc2[nH]c3c(c(C)nn3-c3ccccn3)c(=O)c12 :: 1.64
CCCNc1c2ccccc2nc2c1c(C)nn2-c1ccccn1 :: 1.81

Challenge: Quick one: log10 of IC50 of Cc1nn(-c2ccccn2)c2nc3ccccc3c(OC3CCCC3)c12 ?
Response given: 1.93

----------
# melting point per entry

Example entries begin here.
Cc1nn(-c2ccccn2)c2[nH]c3cc(F)ccc3c(=O)c12 :: 260 to 261 °C
Cc1nn(-c2ccccn2)c2[nH]c3cc(Cl)c(Cl)cc3c(=O)c12 :: 303 to 304 °C

Challenge: Quick one: melting point of Cc1nn(-c2ccccn2)c2[nH]c3ccc(S(C)(=O)=O)cc3c(=O)c12 ?
Response given: > 300 °C

Challenge: Quick one: melting point of Cc1cccc(-n2nc(C)c3c(=O)c4cc(F)c(F)cc4[nH]c32)n1 ?
Response given: 301 to 302 °C

Challenge: Quick one: melting point of Cc1nn(-c2ccccn2)c2nc3ccccc3c(OC(C)C)c12 ?
Response given: 93 to 96 °C

----------
Observed Property: melting point

Cc1nn(-c2ccccn2)c2nc3ccccc3c(CC(C)C)c12 :: 87 to 88 °C

Challenge: Quick one: melting point of Cc1cccc2[nH]c3c(c(C)nn3-c3ccccn3)c(=O)c12 ?
Response given: 183 to 186 °C

Challenge: Quick one: melting point of Cc1cccnc1-n1nc(C)c2c(N)c3ccccc3nc21 ?
Response given: 202 to 205 °C

Challenge: Quick one: melting point of Cc1nn(-c2ccccn2)c2nc3cccc(F)c3c(Cl)c12 ?
Response given: 160 to 161 °C

Challenge: Quick one: melting point of Cc1nn(-c2ccccn2)c2[nH]c3ccc(Cl)cc3c(=O)c12 ?
Response given: 254 to 255 °C

Challenge: Quick one: melting point of Cc1nn(-c2ccccn2)c2nc3cc([N+](=O)[O-])ccc3c(Cl)c12 ?
Response given: 226 to 227 °C

Challenge: Quick one: melting point of Clc1c2ccccc2nc2c1c(CBr)nn2-c1ccccn1 ?
Response given: 203 to 205 °C

----------
# melting point per entry

Example entries begin here.
COc1ccc2[nH]c3c(c(C)nn3-c3ccccn3)c(=O)c2c1 :: 227 to 229 °C
CCc1c2ccccc2nc2c1c(C)nn2-c1ccccn1 :: 112 to 114 °C
Cc1nn(-c2ccccn2)c2ncc(C(=O)Nc3cccc(F)c3)c(O)c12 :: > 300 °C
COc1ccc2nc3c(c(C)nn3-c3ccccn3)c(Cl)c2c1 :: 186 to 187 °C
CCCN(C)c1c2ccccc2nc2c1c(C)nn2-c1ccccn1 :: 110 to 112 °C

Challenge: Quick one: melting point of Cc1nn(-c2ccccn2)c2[nH]c3cc([N+](=O)[O-])ccc3c(=O)c12 ?
Response given: > 300 °C

Challenge: Quick one: melting point of O=c1c2ccccc2[nH]c2c1c(-c1ccccc1)nn2-c1ccccn1 ?
Response given: 237 to 240 °C

Challenge: Quick one: melting point of Cc1nn(-c2ccccn2)c2c1c(=O)c1ccccc1n2C ?
Response given: 192 to 193 °C

Challenge: Quick one: melting point of COc1c2ccccc2nc2c1c(C)nn2-c1cccnc1 ?
Response given: 126 to 128 °C

----------
Test system: carrageenin edema of right hind limb plantar
Protocol: Anti-inflammatory activity, carrageenin edema method
Format: in vivo, SD-rats
Setup Conditions: po; 10 mg/kg orally, 2 hr after carrageenin injection; read-out: Repression rate (%) Dosage 10 mg/kg 2 hr later
Observed Property: inhibition in vivo at 10 mg/kg (%)
Please state the figure in %; there is no need to write the unit.

COC(=O)c1cccc2[nH]c3c(c(C)nn3-c3ccccn3)c(=O)c12 [Example 2-61] :: 36
CCCNc1c2ccccc2nc2c1c(C)nn2-c1ccccn1 [Example 2-6] :: 43
Cc1nn(-c2ccccn2)c2[nH]c3cc(F)c(Cl)cc3c(=O)c12 [Example 2-99] :: 46

Challenge: Hi! What's the reported inhibition in vivo at 10 mg/kg for O=c1c2cc(Cl)ccc2[nH]c2c1cnn2-c1ccccn1 [Example 2-161] on carrageenin edema of right hind limb plantar?
Response given: 33

Challenge: Hi! What's the reported inhibition in vivo at 10 mg/kg for CCCOc1c2ccccc2nc2c1c(C)nn2-c1ccccn1 [Example 2-17] on carrageenin edema of right hind limb plantar?
Response given: 45

Challenge: Hi! What's the reported inhibition in vivo at 10 mg/kg for Cc1nn(-c2ccccn2)c2[nH]c3cc(F)c(F)cc3c(=O)c12 [Example 2-91] on carrageenin edema of right hind limb plantar?
Response given: 51

Challenge: Hi! What's the reported inhibition in vivo at 10 mg/kg for Cc1nn(-c2ccccn2)c2nc3ccccc3c(OC3CCCC3)c12 [Example 2-21] on carrageenin edema of right hind limb plantar?
Response given: 52

Challenge: Hi! What's the reported inhibition in vivo at 10 mg/kg for O=c1c2ccccc2[nH]c2c1cnn2-c1ccccn1 [Example 2-159] on carrageenin edema of right hind limb plantar?
Response given: 50

----------
# melting point per entry
Where a name gives a salt, the structure may show the parent alone.

Example entries begin here.
Cc1nn(-c2ncccn2)c2[nH]c3ccccc3c(=O)c12 :: 263 to 264 °C
Cc1nn(-c2ccccn2)c2[nH]c3ccc(C(=O)O)cc3c(=O)c12 :: > 300 °C

Challenge: Quick one: melting point of Cc1cccnc1-n1nc(C)c2c(N)c3c(C)cccc3nc21 ?
Response given: 271 to 274 °C

Challenge: Quick one: melting point of COc1cccc(-n2nc(C)c3c(Cl)c4cccc(C)c4nc32)n1 ?
Response given: 148 to 151 °C

Challenge: Quick one: melting point of Oc1ccnc2c1cnn2-c1ccccn1 ?
Response given: 192 to 194 °C

Challenge: Quick one: melting point of Cc1cccc2c(N)c3c(C)nn(-c4ccccn4)c3nc12.Cl ?
Response given: 283 to 286 °C

Challenge: Quick one: melting point of Cc1nn(-c2cccc(Cl)n2)c2[nH]c3ccccc3c(=O)c12 ?
Response given: 251 to 253 °C

Challenge: Quick one: melting point of Cc1nn(-c2ccccn2)c2nc3ccc(Br)cc3c(Cl)c12 ?
Response given: 234 to 235 °C

Challenge: Quick one: melting point of Cc1cccnc1-n1nc(C)c2c(=O)c3cccc(C)c3[nH]c21 (as salt: salt) ?
Response given: 193 to 195 °C

Challenge: Quick one: melting point of Clc1c2ccccc2nc2c1cnn2-c1ccccn1 ?
Response given: 153 to 156 °C

Challenge: Quick one: melting point of Cc1nn(-c2ccccn2)c2[nH]c3c(Cl)cc(Cl)cc3c(=O)c12 ?
Response given: 288 to 289 °C

Challenge: Quick one: melting point of CC(C)Cc1nn(-c2ccccn2)c2[nH]c3ccccc3c(=O)c12 ?
Response given: 167 to 169 °C

Challenge: Quick one: melting point of Cc1nn(-c2ccccn2)c2nc3ccccc3c(OC3CCCCC3)c12 ?
Response given: 88 to 91 °C

Challenge: Quick one: melting point of Cc1nn(-c2ccccn2)c2[nH]c3ccc([N+](=O)[O-])cc3c(=O)c12 ?
Response given: > 300 °C

Challenge: Quick one: melting point of Cc1nn(Cc2ccccn2)c2nc3ccccc3c(N)c12 (as salt: salt) ?
Response given: 262 to 265 °C

Challenge: Quick one: melting point of Cc1nn(-c2ccncc2)c2[nH]c3cc(F)c(F)cc3c(=O)c12.Cl.Cl ?
Response given: 237 to 240 °C

Challenge: Quick one: melting point of Cc1cccnc1-n1nc(C)c2c(=O)c3ccccc3[nH]c21 ?
Response given: 184 to 185 °C
